Provenance of the data: paper PMC9897788

Tested on: NCI-H23
measurementDescription: NCI 60 cell one-dose screening (SRB)
Assay type: cell-based
conditions: Homo sapiens; NCI-H23, Non-Small Cell Lung Cancer; single dose 10 µM, 48 h; read-out: Percentage of cellular growth inhibition
recordedEndpoint: inhibition at 10 µM (%)
// return numeric value only (unit: %, not printed)

smilesrepr=Clc1ccc(-c2csc(Nc3cccc(Nc4nc(-c5ccc(Cl)cc5)cs4)c3)n2)cc1 result=10.1
smilesrepr=CC(=O)c1sc(Nc2cccc(Nc3nc(C)c(C(C)=O)s3)c2)nc1C result=36.8
smilesrepr=S=C(Nc1ccccc1)Nc1cccc(NC(=S)Nc2ccccc2)c1 result=-5.7
smilesrepr=NC(=S)Nc1cccc(NC(N)=S)c1 result=1.5

# input for lookup
// recorded inhibition at 10 µM for Cc1nc(Nc2cccc(Nc3nc(C)c(N=Nc4ccccc4)s3)c2)sc1N=Nc1ccccc1 : 14.7

---

recordedEndpoint: melting point

Below are worked cases with known answers.
molecule="Cc1nc(Nc2cccc(Nc3nc(C)c(N=Nc4ccccc4)s3)c2)sc1N=Nc1ccccc1 [5a]" result="115 to 116 °C"
molecule="c1ccc(/N=c2\\scc(-c3ccccc3)n2-c2cccc(-n3c(-c4ccccc4)cs/c3=N\\c3ccccc3)c2)cc1 [8a]" result="110 to 111 °C"

Reported melting point ( Clc1ccc(-c2csc(Nc3cccc(Nc4nc(-c5ccc(Cl)cc5)cs4)c3)n2)cc1 [6c] ) = 100 to 101 °C

Entry under test: Clc1ccc(-c2cs/c(=N\c3ccccc3)n2-c2cccc(-n3c(-c4ccc(Cl)cc4)cs/c3=N\c3ccccc3)c2)cc1 [8c] . Its melting point was 120 to 121 °C

Given item Fc1ccc(-c2csc(Nc3cccc(Nc4nc(-c5ccc(F)cc5)cs4)c3)n2)cc1 [6b] , the value recorded as its melting point is 80 to 83 °C

Lab note: measured melting point of CCOC(=O)c1sc(Nc2cccc(Nc3nc(C)c(C(=O)OCC)s3)c2)nc1C [3c] was 107 to 108 °C

Noted for Cc1csc(Nc2cccc(Nc3nc(C)cs3)c2)n1 [3a] : its melting point reads 137 to 139 °C

GET /value?item= c1ccc(-c2csc(Nc3cccc(Nc4nc(-c5ccccc5)cs4)c3)n2)cc1 [6a] &field=melting point returns 92 to 94 °C

---

# inhibition at 10 µM per entry
Tested on: MOLT-4
measurementDescription: NCI 60 cell one-dose screening (SRB)
Assay type: cell-based
conditions: Homo sapiens; MOLT-4, Leukemia; single dose 10 µM, 48 h; read-out: Percentage of cellular growth inhibition
Numeric answer only, unit % assumed.

Below, each entry is followed by its recorded inhibition at 10 µM result.
compound="Cc1nc(Nc2cccc(Nc3nc(C)c(N=Nc4ccccc4)s3)c2)sc1N=Nc1ccccc1 [5a]" targetundertest=MOLT-4 result=32.6
compound="Fc1ccc(-c2csc(Nc3cccc(Nc4nc(-c5ccc(F)cc5)cs4)c3)n2)cc1 [6b]" targetundertest=MOLT-4 result=53.6

Bench note, MOLT-4: entry CCOC(=O)c1sc(Nc2cccc(Nc3nc(C)c(C(=O)OCC)s3)c2)nc1C [3c] , its inhibition at 10 µM = 29.2

I looked up Cc1csc(Nc2cccc(Nc3nc(C)cs3)c2)n1 [3a] and its inhibition at 10 µM for MOLT-4 was 44

GET /values?item= Clc1ccc(-c2cs/c(=N\c3ccccc3)n2-c2cccc(-n3c(-c4ccc(Cl)cc4)cs/c3=N\c3ccccc3)c2)cc1 [8c] &system= MOLT-4 returns inhibition at 10 µM: 12.3
